protocol details: HFF host cell cytotoxicity, Alamar blue viability assay
Format: cell-based, human
experimental parameters: human, uninfected HFF cells (confluent monolayer), 5 μM, read-out: viability (% of control ± SD)
quantity kind: viability at 72 h, 5 µM (%)

# compound structure string, quantity kind, reading unit, measured result
rows = [
    ("COc1ncnc(NS(=O)(=O)c2ccc(N)cc2)c1OC", "viability at 72 h, 5 µM", "%", 106),
]

---

protocol details: HFF host cell cytotoxicity, Alamar blue viability assay
Type: cell-based, human
experimental parameters: human, uninfected HFF cells (confluent monolayer), 2.5 μM, read-out: viability (% of control ± SD)
Procedure: To determine cytotoxicity of compounds on host cells, HFF were grown to confluency in 96 well plates and were treated with different concentrations of the drugs solubilized in medium during 72 h at 37 °C/5% CO2, or were treated with the corresponding concentration of DMSO only ([Desiatkina et al., 2020]; [Holzer et al., 2023]; [Păunescu et al., 2021]). […]

# compound structure string, reading unit, viability at 72 h, 2.5 µM
measured = [
    ("COc1ncnc(NS(=O)(=O)c2ccc(N)cc2)c1OC", "%", 118),
]

---

protocol details: HFF host cell cytotoxicity, Alamar blue viability assay
Type: cell-based, human
experimental parameters: human, uninfected HFF cells (confluent monolayer), 10 μM, read-out: viability (% of control ± SD)
quantity kind: viability at 72 h, 10 µM (%)

# molecule, quantity kind, measured result
data = [
    ("COc1ncnc(NS(=O)(=O)c2ccc(N)cc2)c1OC [SDX, Sulfadoxine]", "viability at 72 h, 10 µM", 93),
]
